# label = Satisfied if melting point >= 200 °C else Not satisfied

Example cases with answers are listed next.
{"SMILES_INPUT": "CCCCN1CCC(CNC(=O)c2ccc(N)n3cc(Cl)nc23)CC1", "GROUP": "Not satisfied"}
{"SMILES_INPUT": "COCCCN1CCC(CNC(=O)c2cc(Cl)c(N)n3cc(C)nc23)CC1", "GROUP": "Not satisfied"}
{"SMILES_INPUT": "COC(C)(C)CN1CCC(CNC(=O)c2cc(Cl)c(N)n3cc(C)nc23)CC1", "GROUP": "Satisfied"}

Does CCc1cn2c(N)c(Cl)cc(C(=O)NCC3CCN(CCC(C)(C)C)CC3)c2n1 have a reported melting point of at least 200 °C?
Satisfied

Check this compound for melting point at or above 200 °C: CCCc1cn2c(N)c(Cl)cc(C(=O)NC3CCN(CCCOC)CC3)c2n1.Cl
Satisfied

---

READOUT_LABEL: melting point (°C)
Hi! Could you send only the number? It should be in °C, unit omitted.

Some solved entries appear below for comparison.
{"SMILES_INPUT": "CCc1cn2c(N)c(Cl)cc(C(=O)NCC3CCN(CC(C)(C)OC)CC3)c2n1", "READOUT_LABEL": "melting point", "UNITS_TEXT": "°C", "VALUE_REPORTED": 211}
{"SMILES_INPUT": "CCCCN1CCC(CNC(=O)c2cc(Cl)c(NC)n3ccnc23)CC1", "READOUT_LABEL": "melting point", "UNITS_TEXT": "°C", "VALUE_REPORTED": 148}

May I ask what melting point has been recorded for CCCCN1CCC(CNC(=O)c2ccc(N)n3cc(CCC)nc23)CC1 ?
172

Need melting point of CCCCN1CCC(CNC(=O)c2ccc(N)n3cc(-c4ccccc4)nc23)CC1 , thanks.
221

Name the recorded melting point for CCc1cn2c(N)c(Cl)cc(C(=O)NCC3CCNCC3)c2n1 .
153

Entry CNc1c(Cl)cc(C(=O)NCC2CCN(CCCOC)CC2)c2nccn12 : reported melting point = ?
125

---

// reported melting point per item
Dear colleague, please return just the value in °C, with no unit written.

Below, each entry is followed by its recorded melting point result.
{"SMILES_INPUT": "CCCc1cn2c(N)ccc(C(=O)NC3CCN(CCCOC)CC3)c2n1.Cl", "VALUE_REPORTED": 238}
{"SMILES_INPUT": "CCCCN1CCC(CNC(=O)c2cc(Cl)c(N)n3cc(-c4ccccc4)nc23)CC1.Cl", "VALUE_REPORTED": 263}
{"SMILES_INPUT": "CCCCN1CCC(CNC(=O)c2ccc(N)n3cc(C(C)C)nc23)CC1", "VALUE_REPORTED": 138}
{"SMILES_INPUT": "CCCCN1CCC(CNC(=O)c2cc(Cl)c(N)n3cc(C(C)C)nc23)CC1", "VALUE_REPORTED": 168}

Give the measured melting point of CCc1cn2c(N)c(Cl)cc(C(=O)NC3CCN(CCCOC)CC3)c2n1 .
179

---

Each item that follows carries a reported melting point.

{"SMILES_INPUT": "CCCCN1CCC(CNC(=O)c2ccc(N)n3cc(CC)nc23)CC1", "READOUT_LABEL": "melting point", "VALUE_REPORTED": "139 to 145 °C"}

Name the reported melting point value associated with the compound CCCCN1CCC(CNC(=O)c2cc(Cl)c(N)n3cc(C)nc23)CC1
188 to 191 °C

# query: melting point of entry Cc1cn2c(N)c(Cl)cc(C(=O)NCC3CCN(CC(C)C)CC3)c2n1
216 to 219 °C
